# Subject Of Test: T1, Anti-CD28 Fab (SEQ ID NOs: 202, 203)
# T1 construct: biotinylated and captured on neutravidin coated plates in the phage ELISA
# Run Description: phage binding ELISA, Fab on plate;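 note: clonal phage supernatant ELISA, wells preincubated with CD28 antigen or blocking buffer only, then bound phage detected using HRP-linked anti-M13 antibody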
Value Kind: Anti-CD28 Fab (SEQ ID NOs: 202, 203) signal
Output spec: single numeric token, no unit.

As a guide, the following entries are already answered.
TCSAGASYPWPVCL [Phage-1048] ... 1.67
TCAAGATYPWPSCL [Phage-1038] ... 1.73
LCAAGANYPWPACL [Phage-1053] ... 1.66
LCAEGFDYSWPMCL [Phage-1086] ... 1.55
TCSAGAGYPWPLCY [Phage-991] ... 1.92

Prompt: Fill blank: measured Anti-CD28 Fab (SEQ ID NOs: 202, 203) signal of the binder WCAAVFSYTWSPCL [Phage-981] is ____.
Completion: 1.96

Prompt: Requested read-out: Anti-CD28 Fab (SEQ ID NOs: 202, 203) signal. Entry: TCSAVFSYTWSNCF [Phage-1089]
Completion: 1.54

Prompt: Returns the measured Anti-CD28 Fab (SEQ ID NOs: 202, 203) signal for the input binder. Input: SCAAGASYSWPACF [Phage-1016]
Completion: 1.79
